Molecular target: huPD-L1 (Homo sapiens, UniProt Q9NZQ7)
Sequence (Q9NZQ7 19-290): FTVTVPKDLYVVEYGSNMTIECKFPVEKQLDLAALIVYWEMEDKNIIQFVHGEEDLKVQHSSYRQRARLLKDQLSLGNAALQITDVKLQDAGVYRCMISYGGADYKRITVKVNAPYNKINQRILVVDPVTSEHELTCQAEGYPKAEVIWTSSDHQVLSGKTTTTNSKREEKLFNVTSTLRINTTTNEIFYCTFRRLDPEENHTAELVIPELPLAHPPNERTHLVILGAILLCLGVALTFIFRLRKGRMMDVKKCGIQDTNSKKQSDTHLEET
Assay: Flow binding to CHO cells stably expressing PD-L1
Set-up: huCTLA4 and huPD-L1, full-length mammalian surface expression constructs were generated; expressed in transfected cells; host or cells: CHO cells, lentiviral transduction, sorted to >98% purity
Conditions: Table E10; 33.3 nM; CHO cells stably expressing PD-L1
ENDPOINT_NAME: PD-L1 MFI at 33.3 nM

Please review the following examples before continuing.
MOLECULE	PD-L1 MFI at 33.3 nM
H18Y/E35D (protein) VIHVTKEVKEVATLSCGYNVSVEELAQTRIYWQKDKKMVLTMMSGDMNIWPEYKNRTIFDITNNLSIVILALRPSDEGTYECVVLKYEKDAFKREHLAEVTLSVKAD	3526
E35D/D46E/L85M (protein) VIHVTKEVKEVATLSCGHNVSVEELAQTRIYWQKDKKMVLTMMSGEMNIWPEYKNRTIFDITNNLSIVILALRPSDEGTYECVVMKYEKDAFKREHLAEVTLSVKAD	2880

[Q] // returns reported PD-L1 MFI at 33.3 nM for input Q27L/E35D/M47V/I61V/L85M (protein) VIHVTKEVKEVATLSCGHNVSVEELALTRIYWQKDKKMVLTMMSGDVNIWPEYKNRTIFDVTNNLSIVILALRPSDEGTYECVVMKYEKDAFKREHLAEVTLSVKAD
[A] 2705

[Q] Try this molecule next: E35D/D46E/A91G (protein) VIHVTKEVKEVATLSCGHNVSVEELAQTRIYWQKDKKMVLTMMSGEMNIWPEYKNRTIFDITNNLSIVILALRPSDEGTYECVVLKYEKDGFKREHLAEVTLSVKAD
[A] 2818

[Q] Same again, this time with H18Y/E35D/M47L/A71G/A91S (protein) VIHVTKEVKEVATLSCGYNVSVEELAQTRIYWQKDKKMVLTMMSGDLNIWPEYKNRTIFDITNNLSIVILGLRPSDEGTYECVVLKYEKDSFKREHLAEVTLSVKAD
[A] 7582
